Data provenance: patent US20070042946A1

- target_of_assay: human α-thrombin (human), P00734
- assay_explanation: amidolytic assay, Tos-Gly-Pro-Arg-pNA hydrolysis by human α-thrombin, 25° C.
measurement_type: pKi
Value format note: pKi is -log10 of concentration (mol/L); just state the number.

Query string: Quick one: pKi of WDPRPQLHNDGDFEPIPEEYLQ (modifications not checked) [WD22-L-P] ?
Result string: 7.41
